- Tested on: OVCAR-3 ovarian
- assay comment: NCI tumour cell line growth inhibition, 48 h
measurement name: TGI

Given the entry C=CCn1c(N)c(C#N)c(C#N)c1-c1ccccc1 , report its measured TGI.
> 100 µM

Try this molecule too: CC(=O)Nc1ccc(N=Nc2c(O)c(S(=O)(=O)O)cc3cc(S(=O)(=O)O)ccc23)cc1
> 100 µM

Try this molecule too: CCCC(=O)NC(NC1CCCCC1)(C(=O)OCC)C(F)(F)F (stereo not given)
> 100 µM

Try this molecule too: Cc1cc(Cl)cc(OCCn2cc(F)cn2)c1-c1nc(N)nc2c1CN(C(=O)NCC(C)(F)F)C2
> 100 µM

Try this molecule too: COc1cccc(F)c1C(=O)c1cnc(NC2CCN(S(C)(=O)=O)CC2)nc1N
19 µM

Try this molecule too: O=P(O)(O)CCP(=O)(O)O
> 100 µM

Try this molecule too: O=C1Sc2cc3ccccc3cc2C(=O)Sc2ccc(Br)cc21
5.21 µM

Try this molecule too: COC(=O)C(C(=O)c1ccccc1)C(C(=O)C(=O)Nc1ccc(OC)cc1OC)C(=O)C(=O)c1ccc(C)cc1 (stereo not given)
> 100 µM

Try this molecule too: CCCC(=O)OCC1OC(n2ccc(N)nc2=O)C(OC(=O)CCC)C1OC(=O)CCC (stereo not given)
> 100 µM

Try this molecule too: COc1cc(OC)c2nc(C)c(CCCl)c(Cl)c2c1
> 100 µM
